- EXPERIMENTAL_DETAILS: chemical genetic growth profiling, strain panel (AID 1159580);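 further: tested at 20 µM; growth read once vehicle control cultures reached saturation at 30 °C; 1 = growth at the plate median or of vehicle wells; lower values mean less growth of the strain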
- ASSAY_CONTEXT: S. cerevisiae deletion strains, growth OD, locus YAL021C, strain ccr4, active compounds read low
Among all 5,500 compounds or so, about 2,000 (36%) were called active. Inconclusive results (about 18%) are left out. Some of the results follow.
Kindly supply the reported normalized growth values for the records listed here.
Numbers only.

Quick check: normalized growth of Oc1c(I)cc(I)c2cccnc12 ?
0.091

Please give the result for C1CNCCN1 too.
0.999

Same read-out for CCN(CC)CCOc1ccc(/C(=C(\Cl)c2ccccc2)c2ccccc2)cc1 ?
0.064

Also check O=C(OC1Cc2c(O)cc(O)cc2OC1c1cc(O)c(O)c(O)c1-c1c(C2Oc3cc(O)cc(O)c3CC2OC(=O)c2cc(O)c(O)c(O)c2)cc(O)c(O)c1O)c1cc(O)c(O)c(O)c1 (configuration not stated)
0.833

Thanks! And O=[N+]([O-])c1cc([As](=O)(O)O)ccc1O ?
0.965

Okay, and COc1ccc(C(Cl)=C(c2ccc(OC)cc2)c2ccc(OC)cc2)cc1 ?
1.04

Hello, I would appreciate it if you could give normalized growth for each entry below.
1. Nc1ccc([As](=O)(O)O)cc1
2. COc1cc(C(=O)NCc2ccc(OCCN(C)C)cc2)cc(OC)c1OC

1
0.993

Answer for every listed entry: what is its normalized growth? The entries follow.
1. C=CC(C)(O)CC/C=C(\C)CCC=C(C)C (configuration not stated)
2. Cc1occc(=O)c1O
3. O=C(O[C@@H]1Cc2c(O)cc(O)cc2O[C@@H]1c1cc(O)c(O)c(O)c1-c1c([C@H]2Oc3cc(O)cc(O)c3C[C@H]2O)cc(O)c(O)c1O)c1cc(O)c(O)c(O)c1
4. CC(=O)Nc1cc([As](=O)(O)O)ccc1O
5. CC(C)(C)NCC(O)c1ccccc1Cl (configuration not stated)
6. C[C@H](N)[C@H](O)c1ccc(O)c(O)c1

1. 0.913
2. 0.964
3. 0.962
4. 1.01
5. 1.01
6. 1.01

###

- EXPERIMENTAL_DETAILS: chemical genetic growth profiling, strain panel (AID 1159580);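 further: tested at 20 µM; growth read once vehicle control cultures reached saturation at 30 °C; 1 = growth at the plate median or of vehicle wells; lower values mean less growth of the strain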
- ASSAY_CONTEXT: S. cerevisiae deletion strains, growth OD, locus YJL157C, strain FAR1
In all, about 5,500 compounds went through this assay and about 2,000 (36%) were called active. Inconclusive results (about 18%) are left out. Cut-off read from the data, not from the text of the source: active = normalized growth mostly below about 0.91 (no sharp cut-off); inconclusive = no clear call, values can overlap the other calls; inactive = mostly above about 0.92. This is one part of the list.
Valid outcomes are listed here; reply with one: y = active, n = inactive

Assay result, entry FC(F)(F)c1cccc(NC(=S)Nc2csc(C(F)(F)F)c2-c2ccccc2)c1 — outcome?
n

What do we get for CSc1ccc(/C=C(\C)[N+](=O)[O-])cc1 ?
y

# iterate: O=[N+]([O-])/C=C/c1ccc(F)cc1
y

***
How was Fc1cccc(Cl)c1CSc1nncn1-c1ccc(OCc2ccccc2)cc1 classified in this test?
n

// repeat for CCCc1c(C(=O)NNc2cccc(Cl)c2)cnn1-c1ccccc1 and report
n

Now the compound CCCc1c(C(=O)Sc2ccccn2)cnn1-c1ccc(Cl)cc1
n

###

- EXPERIMENTAL_DETAILS: chemical genetic growth profiling, strain panel (AID 1159580);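 further: tested at 20 µM; growth read once vehicle control cultures reached saturation at 30 °C; 1 = growth at the plate median or of vehicle wells; lower values mean less growth of the strain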
- ASSAY_CONTEXT: S. cerevisiae deletion strains, growth OD, locus YJL092W, strain hpr5, active compounds read low
In all, about 5,500 compounds went through this assay and about 2,000 (36%) were called active. About 18% were inconclusive and are not listed. The list shows a part of the results.
Would you kindly list normalized growth for each of these compounds?
One number for each entry.

Report normalized growth for CO[C@H]1/C=C/O[C@@]2(C)Oc3c(C)c(O)c4c(O)c(c5c(nc6cc(C)ccn65)c4c3C2=O)NC(=O)/C(C)=C\C=C\[C@H](C)[C@H](O)[C@@H](C)C(O)[C@@H](C)[C@H](OC(C)=O)[C@@H]1C (stereo partly specified) please.
1.04

// for each compound below, give its normalized growth
1. CC(C)(C)NC[C@@H](O)COc1nsnc1N1CCOCC1
2. C[C@H](N)[C@H](O)c1ccc(O)c(O)c1
3. O=C(O)/C=C/C=C/c1ccccc1
4. CC(=O)c1c(O)c(C)c(O)c2c1OC1=CC(=O)C(C(C)=O)C(=O)C12C (stereo unspecified)

1: 1.01; 2: 1; 3: 0.79; 4: 0.908

What value of normalized growth has been recorded for this entry: N[C@@H](Cc1ccc(O)c(O)c1)C(=O)O
0.991
